Study Target: STAT6 (Homo sapiens)
Construct: These cells express endogenous STAT6; host or cells: HeLa LgBiT clone 4.14 (CRISPR knock-in of HiBiT into the endogenous STAT6 gene)
Sequence (P42226 1-847): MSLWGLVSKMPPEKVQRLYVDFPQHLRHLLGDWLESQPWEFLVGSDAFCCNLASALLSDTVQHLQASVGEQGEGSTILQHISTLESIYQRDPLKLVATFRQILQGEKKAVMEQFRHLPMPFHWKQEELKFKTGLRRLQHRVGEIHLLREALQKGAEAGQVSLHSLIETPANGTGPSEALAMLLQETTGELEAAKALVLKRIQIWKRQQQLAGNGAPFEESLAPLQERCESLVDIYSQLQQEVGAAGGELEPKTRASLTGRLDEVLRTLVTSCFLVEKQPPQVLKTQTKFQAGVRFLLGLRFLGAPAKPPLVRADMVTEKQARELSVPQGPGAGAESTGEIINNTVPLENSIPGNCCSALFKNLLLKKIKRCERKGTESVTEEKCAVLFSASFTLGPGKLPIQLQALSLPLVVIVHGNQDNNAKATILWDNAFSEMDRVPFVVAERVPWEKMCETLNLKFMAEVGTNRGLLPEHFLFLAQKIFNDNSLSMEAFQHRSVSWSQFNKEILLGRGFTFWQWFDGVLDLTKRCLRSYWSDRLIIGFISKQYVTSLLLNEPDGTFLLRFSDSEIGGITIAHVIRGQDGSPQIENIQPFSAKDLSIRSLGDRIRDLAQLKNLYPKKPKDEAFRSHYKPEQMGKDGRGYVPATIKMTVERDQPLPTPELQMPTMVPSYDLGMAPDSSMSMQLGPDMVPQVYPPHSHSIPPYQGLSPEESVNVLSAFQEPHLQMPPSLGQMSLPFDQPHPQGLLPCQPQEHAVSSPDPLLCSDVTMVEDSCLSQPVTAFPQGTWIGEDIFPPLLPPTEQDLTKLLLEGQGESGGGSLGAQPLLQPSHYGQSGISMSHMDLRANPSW
Assay Remarks: STAT6 Degrader Assay (HiBiT based, HeLa LgBiT clone 4.14 cells)
Format: cell-based
Condition Summary: geometric mean across assay runs and compound batches; DC50 provided for test compounds with >80% Emax; read-out: STAT6 degradation DC50
Method: This was a HiBit based assay. A HeLa cell line stably transfected with a small protein, LgBit (Large Bit) was obtained from Promega. These cells express endogenous STAT6. […] Single cell clones were prepared and the clone 4.14 was selected for the assay based on that clone showing high luminescence, high STAT6 phosphorylation upon stimulation with IL-4, and inhibition of luminescence when cells were treated with STAT6 siRNA. […] The measured DC50 (in nM) was determined.
Measured Property: DC50 (nM)
Answers are plain numbers, in nM.

A selection of reference data follows.
# Compound, DC50 [nM]
records = [
    ("CNc1ccn(-c2ccnc3c2cc([C@H](C)N2CC=C(c4c(C)cc(C(=O)N5CCC(CN6CCN(c7ncc(N[C@@H]8CCC(=O)NC8=O)cc7F)C[C@@H]6C)CC5)cc4F)CC2)n3C)c(=O)c1 (single isomer, unassigned) [Example 2g96]", 14),
    ("CNc1cc(=O)n(-c2ccnc3c2cc(CN2CCC(c4c(F)cc(C(=O)N5CCC(CN6CCN(c7ccc(N[C@@H]8CCC(=O)NC8=O)cc7F)CC6)CC5)cc4F)CC2)n3C)cc1F (single isomer, unassigned) [Example 2g33]", 50.8),
    ("Cc1cc(C(=O)N2CCC(CN3CCN(c4ccc(NC5CCC(=O)NC5=O)cc4F)CC3)CC2)cc(F)c1C1CCN(Cc2cc3c(-n4ccc5c(c4=O)CCN5)ccnc3n2C)CC1 (stereo not drawn) [Example 2g36]", 35.7),
    ("CNc1ccn(-c2ccnc3c2cc([C@H](C)N2CC=C(c4c(C)cc(C(=O)N5CCn6nc(CN7CCC(c8ccc(N[C@@H]9CCC(=O)NC9=O)c(OC)c8)CC7)cc6C5)cc4F)CC2)n3C)c(=O)c1 (single isomer, unassigned) [Example 2g118]", 0.1),
    ("Cc1cc(C(=O)N2CCn3nc(CN4CCC(c5ccc(NC6CCC(=O)NC6=O)cc5F)CC4)cc3C2)cc(F)c1C1=CCN([C@@H](C)c2cc3c(-n4ccc5c(c4=O)CCN5)ccnc3n2C)CC1 (stereo partly drawn) [Example 2g25]", 0.6),
    ("CNc1ccn(-c2ccnc3c2cc([C@H](C)N2CC=C(c4c(F)cc(C(=O)N5CCn6nc(CN7CCC(c8ccc(NC9CCC(=O)NC9=O)cc8F)CC7)cc6C5)cc4F)CC2)n3C)c(=O)c1 (stereo partly drawn) [Example 2g108]", 0.5),
    ("CNc1ccn(-c2ccnc3c2cc(CN2CC=C(c4c(C)cc(C(=O)N5CCC(CN6CCN(c7ccc(NC8CCC(=O)NC8=O)cc7F)CC6)CC5)cc4F)CC2)n3C)c(=O)c1 (stereo not drawn) [Example 2g54]", 7.3),
    ("Cc1cc(C(=O)N2CCC(CN3CCN(c4ccc(N[C@H]5CCC(=O)NC5=O)cc4F)CC3)CC2)cc(F)c1C1=CCN([C@@H](C)c2cc3c(-n4ccc5c(c4=O)CCN5)ccnc3n2C)CC1 (single isomer, unassigned) [Example 2g19]", 4.5),
]

Pending compound:
Give the value of DC50 reported for the following: Cc1cc(C(=O)N2CCC(CN3CCN(c4ccc(NC5CCC(=O)NC5=O)cc4F)CC3)CC2)cc(F)c1C1=CCN(Cc2cc3c(-n4ccc5c(c4=O)CCN5)ccnc3n2C)CC1 (stereo not drawn) [Example 2g59]
6.1
